Hi there, I'd appreciate the recorded Ki for every entry that follows.
measurement.target: C1b domain of human PKCα (Homo sapiens)
Construct: Genes encoding C1b domains of human PKCα, δ, ε, θ, and PKD1 (PKCμ) were synthesized; made in house; host or cells: E. coli BL21(DE3)
assay.method.text: biochemical
Assay type: binding
conditions.used: Ki PKCα, 3H-PDBu competition

The following compounds have reported results that may help.
compound="CC1=C[C@H]2[C@@]3(O)[C@H](C)C[C@]4(OC(=O)[C@@H](N)CC(C)(C)C)[C@H]([C@@H]3C=C(CO)C[C@]2(O)C1=O)C4(C)C [Compound K101-C1328]" measurement_target="C1b domain of human PKCα (Homo sapiens)" reported_metric=Ki measured="200 to 400 nM"
compound="CC1=C[C@H]2[C@@]3(O)[C@H](C)C[C@]4(OC(=O)CCCCCCCCCCC(=O)O)[C@H]([C@@H]3C=C(CO)C[C@]2(O)C1=O)C4(C)C [Compound K101-C1334]" measurement_target="C1b domain of human PKCα (Homo sapiens)" reported_metric=Ki measured="> 8000 nM"

Batch lookup, Ki per entry.
1. CSC[C@H](N)C(=O)O[C@@]12C[C@@H](C)[C@@]3(O)[C@@H](C=C(CO)C[C@]4(O)C(=O)C(C)=C[C@@H]34)[C@@H]1C2(C)C [Compound K101-C1339]
2. CC1=C[C@H]2[C@@]3(O)[C@H](C)C[C@]4(OC(=O)C5CC6(C5)CN(C(=O)OC(C)(C)C)C6)[C@H]([C@@H]3C=C(CO)C[C@]2(O)C1=O)C4(C)C [Compound K101-C1311]
3. CC1=C[C@H]2[C@@]3(O)[C@H](C)C[C@]4(OC(=O)[C@@H](N)CC5CC5)[C@H]([C@@H]3C=C(CO)C[C@]2(O)C1=O)C4(C)C [Compound K101-C1330]

["4000 to 6000 nM", "400 to 800 nM", "1000 to 2000 nM"]
